B1: POU domain, class 2, transcription factor 2, residues 200 to 269; numbered along this chain, P09086 (parent)
chain: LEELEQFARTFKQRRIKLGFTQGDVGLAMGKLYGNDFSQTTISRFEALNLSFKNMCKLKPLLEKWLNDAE

Variants of: B1
Test: abundance fitness (aPCA) (normalised: wild type 0, dead -1); higher = more abundant; growth selection in yeast, the domain comes from the species named
Settings: Homo sapiens
abundance fitness reference
Number only, please.

| RESIDUE_STRING | READING |
| --- | --- |
| LEELEQFARTFKQRRIKLGFTQGDVILAMGKLYGNDFSQTTISRFEALNLSFKNMCKLKPLLEKWLNDAE [G26I] | -0.157 |
| LEELEQFARTFKQRRIKLGFTQGDVGLAMGKLYGNFFSQTTISRFEALNLSFKNMCKLKPLLEKWLNDAE [D36F] | 0.017 |
| LEELEQFARTFKQRRIKLGFTQGDVGLAMGKLYGNDFSQTTISRFEALNLSFKFMCKLKPLLEKWLNDAE [N54F] | 0.018 |

Look up abundance fitness for this variant: LEELEQFARTFKQRRIKLGFTQGDVGLAMGKLYGNDFSQTTISRFEALNLSFKNMCKLKPHLEKWLNDAE [L61H]
-0.064

Look up abundance fitness for this variant: LEELEQFARTFKQRRIKLGFTQGDVGLAMGKLYGNDFSSTTISRFEALNLSFKNMCKLKPLLEKWLNDAE [Q39S]
0.005
